The measured values listed here are drawn from patent US20070042946A1.

Entries and their measured pKi follow.
- subject-of-test: human α-thrombin (human, UniProt P00734 328-622)
- protocol-details: amidolytic assay, Tos-Gly-Pro-Arg-pNA hydrolysis by human α-thrombin, 25° C.; synthetic peptide
Please note pKi is a logarithmic value: minus log10 of concentration in mol/L. Answer with that number alone.

FNPRPQSHNDGDFEEIPEEYLQ (Tested as recombinant peptide (FN22^(a), released by CNBr from the MFH fusion) and as synthetic peptide; also called FN22^(a) (recombinant preparation)) [FN22] : 7.10

What measured pKi goes with FDPRPQSHNDGDFEEIPEEYLQ (Tested as recombinant peptide (FD22^(a), released by CNBr from the MFH fusion) and as synthetic peptide; also called FD22^(a) (recombinant preparation)) [FD22] ? 7.32
